src = PubChem BioAssay AID1918953

- System: MDA-MB-231 complex spheroid viability
- protocolDetails: Anticancer human tumor MDA-MB-231/ATCC cell line growth inhibition;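 also: drug exposure lasted 7 days starting on day 3 of spheroid growth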
- testConditions: second compound 0.316 µM; first compound 0.03 µM; active compounds read low
observationType: viability, T/C (%)
Numbers only, in %.

The cases that follow already have their viability, T/C on record.
>>> readoutvalue("COc1cc(C2c3cc4c(cc3C(OC3OC5COC(C)OC5C(O)C3O)C3COC(=O)C23)OCO4)cc(OC)c1O (centres undefined) + NC1CCC(NC2CC2c2ccccc2)CC1")
79.2
>>> readoutvalue("O=C(C=Cc1cccc(S(=O)(=O)Nc2ccccc2)c1)NO + NC1CC1c1ccc(-c2cccc(O)c2)cc1")
35.5
>>> readoutvalue("CCc1c2c(nc3ccc(O)cc13)-c1cc3c(c(=O)n1C2)COC(=O)[C@]3(O)CC + NC1CCC(NC2CC2c2ccccc2)CC1")
16

Input O=C(C=Cc1cccc(S(=O)(=O)Nc2ccccc2)c1)NO + NC1CCC(NC2CC2c2ccccc2)CC1 , output reported viability, T/C.
69.6

###

- Tested on: MDA-MB-231 complex spheroid viability
- protocolDetails: Anticancer human tumor MDA-MB-231/ATCC cell line growth inhibition;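 also: drug exposure lasted 7 days starting on day 3 of spheroid growth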
- testConditions: second compound 0.316 µM; first compound 1 µM; active compounds read low
Consider the following molecules; for each one, report its viability, T/C.
One number for each entry, in %.

Report viability, T/C for each item below.
1. O=C(C=Cn1cnc(-c2cc(C(F)(F)F)cc(C(F)(F)F)c2)n1)NNc1cnccn1 + NC1CCC(NC2CC2c2ccccc2)CC1
2. COc1cc(Nc2ncc3c(n2)-c2ccc(Cl)cc2C(c2c(F)cccc2OC)=NC3)ccc1C(=O)O + NC1CCC(NC2CC2c2ccccc2)CC1
3. CC1(C)CCC(CN2CCN(c3ccc(C(=O)NS(=O)(=O)c4ccc(NCC5CCOCC5)c([N+](=O)[O-])c4)c(Oc4cnc5[nH]ccc5c4)c3)CC2)=C(c2ccc(Cl)cc2)C1 + NC1CC1c1ccc(-c2cccc(O)c2)cc1
4. CC1COCCN1c1cc(-c2ccnn2C)c2ccnc(-c3ccn[nH]3)c2n1 (centres undefined) + NC1CC1c1ccc(-c2cccc(O)c2)cc1

1: 5.07; 2: 42.7; 3: 77.9; 4: 22.5

###

Answer each item with its documented viability, T/C.
- System: MDA-MB-231 complex spheroid viability
- protocolDetails: Anticancer human tumor MDA-MB-231/ATCC cell line growth inhibition;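 also: drug exposure lasted 7 days starting on day 3 of spheroid growth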
- testConditions: second compound 10 µM; first compound 0.00949 µM; active compounds read low
Give bare numbers, in %.

>>> readoutvalue("Nc1ncn(C2CC(O)C(CO)S2)c(=O)n1 (centres undefined) + NC1CC1c1ccc(-c2cccc(O)c2)cc1")
28.2
>>> readoutvalue("Nc1ncn(C2CC(O)C(CO)S2)c(=O)n1 (centres undefined) + NC1CCC(NC2CC2c2ccccc2)CC1")
37.6
>>> readoutvalue("Nc1ccn(C2OC(CO)C(O)C2(F)F)c(=O)n1 (centres undefined) + NC1CC1c1ccc(-c2cccc(O)c2)cc1")
16
>>> readoutvalue("CCN(c1cc(-c2ccc(CN3CCOCC3)cc2)cc(C(=O)NCc2c(C)cc(C)[nH]c2=O)c1C)C1CCOCC1 + NC1CCC(NC2CC2c2ccccc2)CC1")
55.9
>>> readoutvalue("Nc1ccccc1NC(=O)c1ccc(CNC(=O)OCc2cccnc2)cc1 + NC1CC1c1ccc(-c2cccc(O)c2)cc1")
36.3
>>> readoutvalue("COc1cc(C2c3cc4c(cc3C(OC3OC5COC(C)OC5C(O)C3O)C3COC(=O)C23)OCO4)cc(OC)c1O (centres undefined) + NC1CC1c1ccc(-c2cccc(O)c2)cc1")
38.2
>>> readoutvalue("O=C(C=Cc1cccc(S(=O)(=O)Nc2ccccc2)c1)NO + NC1CC1c1ccc(-c2cccc(O)c2)cc1")
31.4
>>> readoutvalue("CCc1c2c(nc3ccc(O)cc13)-c1cc3c(c(=O)n1C2)COC(=O)[C@]3(O)CC + NC1CCC(NC2CC2c2ccccc2)CC1")
20.1

Turning now to a further compound:
Identify viability, T/C associated with the compound CCc1c2c(nc3ccc(O)cc13)-c1cc3c(c(=O)n1C2)COC(=O)[C@]3(O)CC + NC1CC1c1ccc(-c2cccc(O)c2)cc1
13.1
